Assignment: determine reported inhibition for the given compounds.
test.target: Lethal factor (Bacillus anthracis) (UniProt P15917)
Sequence (P15917 whole entry, looked up): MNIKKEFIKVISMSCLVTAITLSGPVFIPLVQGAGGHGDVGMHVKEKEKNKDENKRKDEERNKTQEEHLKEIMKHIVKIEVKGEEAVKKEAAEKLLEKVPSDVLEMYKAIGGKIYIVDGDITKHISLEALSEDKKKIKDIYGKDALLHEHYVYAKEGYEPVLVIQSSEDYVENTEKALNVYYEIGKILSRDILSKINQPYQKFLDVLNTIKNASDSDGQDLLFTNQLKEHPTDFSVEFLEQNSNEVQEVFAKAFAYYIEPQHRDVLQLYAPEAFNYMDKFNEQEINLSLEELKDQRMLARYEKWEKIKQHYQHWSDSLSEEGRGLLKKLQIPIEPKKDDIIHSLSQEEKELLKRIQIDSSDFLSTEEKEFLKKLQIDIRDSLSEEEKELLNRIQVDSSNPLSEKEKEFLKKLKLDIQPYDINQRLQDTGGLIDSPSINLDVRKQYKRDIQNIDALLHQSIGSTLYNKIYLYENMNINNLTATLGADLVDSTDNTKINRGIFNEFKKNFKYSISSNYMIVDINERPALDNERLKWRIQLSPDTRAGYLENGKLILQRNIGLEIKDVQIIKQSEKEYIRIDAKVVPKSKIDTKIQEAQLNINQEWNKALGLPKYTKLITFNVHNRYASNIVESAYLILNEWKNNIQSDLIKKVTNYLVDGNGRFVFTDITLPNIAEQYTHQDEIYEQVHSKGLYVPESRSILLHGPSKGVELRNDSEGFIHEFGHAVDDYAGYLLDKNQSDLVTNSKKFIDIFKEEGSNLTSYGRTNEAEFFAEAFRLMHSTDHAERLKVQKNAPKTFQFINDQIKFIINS
assay.notes: Lethal factor protease inhibitors, Bacillus anthracis, multiplex microsphere cleavage assay, validation set (AID 588461)
setup.conditions: flow cytometry, at 10 µM, hits give high values
Answers are plain numbers, in %.

INSERT INTO measurements (smiles_structure, quantity_kind, readout_units, observed) VALUES
  ('COc1ccc(OC)c(C(=O)c2coc3ccc(O)cc23)c1', 'inhibition', '%', 7),
  ('COc1cccc2c(O)cc(=O)n(C)c12', 'inhibition', '%', -8.1),
  ('O=C1N[C@@H](Cc2cnc[nH]2)C(=O)N2CCC[C@@H]12', 'inhibition', '%', -5.3),
  ('O=C(NC1CCCCC1)N1CCc2[nH]c3ccccc3c2C1', 'inhibition', '%', 5),
  ('CC(=O)O[C@H]1CC[C@H]2[C@@H]3CCc4cc(O)ccc4[C@H]3CC[C@]12C', 'inhibition', '%', -2.4);

# input for lookup
Task: Query inhibition on Lethal factor (Bacillus anthracis) (UniProt P15917) for Clc1ccc(CCNc2ncnc3nc[nH]c23)cc1
Result: -3.1

###

test.target: Lethal factor (Bacillus anthracis)
assay.notes: Lethal factor protease inhibitors, Bacillus anthracis, multiplex microsphere cleavage assay, validation set (AID 588461)
setup.conditions: flow cytometry, at 10 µM, hits give high values
quantity.kind: inhibition (%)
Answers are plain numbers, in %.

Recorded inhibition, per entry:
INSERT INTO measurements (compound, quantity_kind, observed) VALUES
  ('O=C(/C=C/c1ccco1)NCc1ccc2c(c1)OCO2', 'inhibition', 6.8),
  ('COc1ccc2[nH]c3c(c2c1)CCn1c-3nc2ccccc2c1=O', 'inhibition', 4.4),
  ('C[C@@H]1C[C@H]2[C@@H]3C[C@H](F)C4=CC(=O)C=C[C@]4(C)[C@@]3(F)[C@@H](O)C[C@]2(C)[C@@]1(O)C(=O)CO', 'inhibition', 0.5),
  ('C[C@]12CC[C@@H]3c4ccc(OS(=O)(=O)O)cc4CC[C@H]3[C@@H]1CCC2=O', 'inhibition', -0.2),
  ('CS(=O)c1ccccc1O (centres undefined)', 'inhibition', -9.2),
  ('C[N+]1(C)CCN(c2ccccc2)CC1', 'inhibition', -6.3);

Batch: inhibition for all items listed.
1. CCCc1cc(C(N)=S)ccn1
2. COc1cc(C(=O)Nc2cccc(-c3nnc(-c4ccco4)o3)c2)ccc1OC(C)=O
3. CCN(CC)Cc1c[nH]c2c(C(=O)OC)cccc12
4. CC(=O)N[C@@H](CS)C(=O)O
5. O=C(CS(=O)(=O)c1ccccc1)c1ccc2c(c1)OCCO2
6. Cc1ccc2nc(NC3=NC(CC(=O)O)C(=O)N3)nc(C)c2c1 (centres undefined)
7. COc1ccc(C(=O)CC2OC(=O)c3c2ccc(OC)c3OC)cc1 (centres undefined)
8. O=C(OCCN1CCOCC1)c1cccs1

Result:
-7.7
0.6
6.7
2.4
2.2
-4.8
3.4
-1.2

###

Assignment: determine reported inhibition for the given molecules.
test.target: Botulinum neurotoxin type A (Clostridium botulinum) (UniProt P0DPI0)
Sequence (P0DPI0 whole entry, looked up): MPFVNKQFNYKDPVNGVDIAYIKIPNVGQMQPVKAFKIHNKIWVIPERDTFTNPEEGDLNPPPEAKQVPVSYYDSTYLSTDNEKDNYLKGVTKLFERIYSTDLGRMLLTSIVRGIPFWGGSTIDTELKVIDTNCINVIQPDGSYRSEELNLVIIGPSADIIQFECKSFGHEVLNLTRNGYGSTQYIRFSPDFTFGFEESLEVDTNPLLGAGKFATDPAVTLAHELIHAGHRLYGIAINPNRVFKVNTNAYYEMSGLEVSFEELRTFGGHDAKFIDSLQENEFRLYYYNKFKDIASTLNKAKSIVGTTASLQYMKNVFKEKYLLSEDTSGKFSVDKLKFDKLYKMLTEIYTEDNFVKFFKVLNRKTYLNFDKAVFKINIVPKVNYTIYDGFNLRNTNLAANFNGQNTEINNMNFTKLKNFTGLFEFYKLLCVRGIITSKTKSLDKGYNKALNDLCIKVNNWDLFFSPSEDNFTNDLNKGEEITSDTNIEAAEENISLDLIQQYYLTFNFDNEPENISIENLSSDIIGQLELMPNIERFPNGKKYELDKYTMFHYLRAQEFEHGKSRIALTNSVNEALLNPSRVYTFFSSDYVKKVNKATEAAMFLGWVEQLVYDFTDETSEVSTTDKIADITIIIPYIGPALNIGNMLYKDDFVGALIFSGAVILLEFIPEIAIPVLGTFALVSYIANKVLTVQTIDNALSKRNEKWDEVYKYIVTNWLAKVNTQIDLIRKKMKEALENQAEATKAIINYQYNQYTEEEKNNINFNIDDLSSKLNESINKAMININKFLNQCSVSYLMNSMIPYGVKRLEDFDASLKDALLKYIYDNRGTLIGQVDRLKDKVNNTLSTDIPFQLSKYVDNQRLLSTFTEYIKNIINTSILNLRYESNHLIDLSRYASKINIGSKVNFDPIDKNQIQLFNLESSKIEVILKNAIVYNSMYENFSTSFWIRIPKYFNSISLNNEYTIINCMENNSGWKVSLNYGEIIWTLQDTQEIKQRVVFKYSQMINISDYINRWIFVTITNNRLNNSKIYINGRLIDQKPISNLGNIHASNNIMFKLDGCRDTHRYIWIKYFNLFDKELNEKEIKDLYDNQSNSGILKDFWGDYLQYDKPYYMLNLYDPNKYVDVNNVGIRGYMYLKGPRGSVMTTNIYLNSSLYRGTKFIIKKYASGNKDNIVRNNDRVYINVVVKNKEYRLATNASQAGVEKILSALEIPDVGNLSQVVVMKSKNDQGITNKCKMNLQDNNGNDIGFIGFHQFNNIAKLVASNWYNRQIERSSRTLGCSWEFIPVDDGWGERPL
assay.notes: BoNT/A light chain protease inhibitors, biochemical, multiplex microsphere flow cytometry, validation set (AID 588460)
setup.conditions: at 10 µM, hits give high values
One number for each entry, in %.

Recorded inhibition, per entry:
INSERT INTO measurements (molecule, test_target, quantity_kind, observed) VALUES
  ('CCOC(=O)Nc1ccc2c(c1)N(C(=O)CCN1CCOCC1)c1ccccc1S2', 'Botulinum neurotoxin type A (Clostridium botulinum) (UniProt P0DPI0)', 'inhibition', -1.4),
  ('CC(=O)OCC(=O)[C@@]12OC(C)(C)O[C@@H]1C[C@H]1[C@@H]3C[C@H](F)C4=CC(=O)C=C[C@]4(C)[C@@]3(F)[C@@H](O)C[C@@]12C', 'Botulinum neurotoxin type A (Clostridium botulinum) (UniProt P0DPI0)', 'inhibition', -1.4),
  ('CC1=NS(=O)(=O)c2cc(Cl)ccc2N1', 'Botulinum neurotoxin type A (Clostridium botulinum) (UniProt P0DPI0)', 'inhibition', -0.3),
  ('NC(N)=NC(=O)c1nc(Cl)c(N)nc1N', 'Botulinum neurotoxin type A (Clostridium botulinum) (UniProt P0DPI0)', 'inhibition', -0.3);

Batch: inhibition for all items listed.
1. Cc1ccc2[nH]c3c(c2c1)CN(C)CC3
2. C=CCOc1ccc(C(=O)CC)cc1OC
3. CC(=O)c1c[nH]c2ccc(C)cc2c1=O
4. COc1cc(C2C(C(=O)c3ccc(C)o3)=C(O)C(=O)N2Cc2cccnc2)ccc1O (stereo unspecified)
5. CC(=O)Nc1cc(O)cc(O)c1

Result:
-0.7
-0.5
-0.6
-0.4
0.1

Batch: inhibition for all items listed.
1. CCCCOn1c(C)c(C(C)=O)c2c3no[n+]([O-])c3ccc21
2. NC(=O)N1c2ccccc2CC(=O)c2ccccc21

Result:
0.2
0.3
